Cited source for all entries: ChEMBL document CHEMBL1909046

Molecular target: Protein phosphatase 3 catalytic subunit alpha (Homo sapiens); also: in other assays of this panel Not Active means under 50% inhibition at 10 µM;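 also: inhibition of calcineurin (PP2B) enzyme activity, measured with DiFMUP as the substrate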
Design: species or system Escherichia coli
readout_kind: IC50

compound	readout_kind	val
CO[C@@H]1[C@@H](O[C@@H]2O[C@H](C)[C@@H](O[C@H]3C[C@@](C)(O)[C@@H](OC(=O)CC(C)C)[C@H](C)O3)[C@H](N(C)C)[C@H]2O)[C@@H](CC=O)C[C@@H](C)[C@@H](O)/C=C/C=C/C[C@@H](C)OC(=O)C[C@H]1O [KITASAMYCIN]	IC50	Not Active
C=C1C(=O)O[C@@H]2C3O[C@]3(C)CC/C=C(\C)CC[C@@H]12 (stereo partly drawn)	IC50	Not Active
Nc1ccc(S(N)(=O)=O)cc1 [SULFANILAMIDE]	IC50	Not Active

###

Assay: DRUGMATRIX: Interleukin IL-1 radioligand binding (ligand: [125I] interleukin 1beta)
Assay type: cell membranes, Membrane
Conditions: nih3t3; Not Active = under 50% inhibition at 10 µM
readout_kind: Ki

Look over these answered cases.
compound	val
CC(=O)[C@@]1(O)CC[C@H]2[C@@H]3C[C@H](C)C4=CC(=O)C=C[C@]4(C)[C@@]3(F)[C@@H](O)C[C@@]21C	Not Active
NCCCC[C@H](N[C@@H](CCc1ccccc1)C(=O)O)C(=O)N1CCC[C@H]1C(=O)O [LISINOPRIL ANHYDROUS]	Not Active
CC1CN(c2cc3c(cc2F)c(=O)c(C(=O)O)cn3-c2ccc(F)cc2F)CCN1 (stereo unspecified)	Not Active
O=[N+]([O-])c1cc([As](=O)(O)O)ccc1O	Not Active
C=C1[C@@H]2CCC3[C@@](CC[C@@H]4[C@H](C(=O)O)C[C@@H](O[C@@H]5O[C@H](CO)[C@@H](OS(=O)(=O)[O-])[C@H](OS(=O)(=O)[O-])[C@H]5OC(=O)CC(C)C)C[C@@]34C)(C2)[C@@H]1O.[K+].[K+] (stereo partly specified) [ATRACTYLOSIDE]	Not Active
N#C[C@H](O[C@@H]1O[C@H](CO[C@@H]2O[C@H](CO)[C@@H](O)[C@H](O)[C@H]2O)[C@@H](O)[C@H](O)[C@H]1O)c1ccccc1	Not Active
O=C1OC2(c3ccc(O)cc3Oc3cc(O)ccc32)c2ccccc21	Not Active
COc1ccc([C@@H]2Sc3ccccc3N(CCN(C)C)C(=O)[C@@H]2OC(C)=O)cc1	Not Active

Give one value of Ki per listed compound.
1. O=c1[nH]cc(F)c(=O)[nH]1
2. CNC(=O)Oc1ccc2c(c1)[C@]1(C)CCN(C)[C@@H]1N2C
3. CCc1ccc(C(=O)C(C)CN2CCCCC2)cc1 (stereo unspecified)
4. O=C1NC(=O)C(c2ccccc2)(c2ccccc2)N1
5. CC(CCc1ccccc1)NCC(O)c1ccc(O)c(C(N)=O)c1 (stereo unspecified)

1. Not Active
2. Not Active
3. Not Active
4. Not Active
5. Not Active

Provide the reported Ki of each entry below, same order.
1. CC(=O)CCCCn1c(=O)c2c(ncn2C)n(C)c1=O
2. O=P1(NCCCl)OCCCN1CCCl (stereo unspecified) [IFOSFAMIDE]
3. CC(=O)O[C@]1(C(C)=O)CC[C@H]2[C@@H]3C=C(Cl)C4=CC(=O)CC[C@]4(C)[C@H]3CC[C@@]21C [CHLORMADINONE ACETATE]

Not Active
Not Active
Not Active
